Source of measurements: ChEMBL document CHEMBL1137943

MIC by entry:
tested on: Staphylococcus aureus; test: Minimum concentration required to inhibit visible growth of methicillin-sensitive Staphylococcus aureus A15090; format: functional
RECORDED ENDPOINT: MIC (mg/L)

INSERT INTO measurements (compound, recorded_endpoint, value_unit, test_value) VALUES
  ('C=C(NC(=O)c1csc(-c2nc3c(cc2O)-c2nc(cs2)C(=O)NC(C(C)O)C(=O)N/C(=C(\C)OC)c2nc(cs2)C(=O)NC2c4nc(cs4)C(=O)NC(COC(=O)c4c5c6c(cccc6n4OC(=O)NCCCC)COC(=O)C(OC4CC(C)(O)C(N(C)C)C(C)O4)C2OC5)c2nc-3cs2)n1)C(N)=O (configuration not stated)', 'MIC', 'mg/L', 0.001),
  ('C=C(NC(=O)c1csc(-c2nc3c(cc2O)-c2nc(cs2)C(=O)NC(C(C)O)C(=O)N/C(=C(\C)OC)c2nc(cs2)C(=O)NC2c4nc(cs4)C(=O)NC(COC(=O)c4c5c6c(cccc6n4OC(=O)N(C)CCO)COC(=O)C(OC4CC(C)(O)C(N(C)C)C(C)O4)C2OC5)c2nc-3cs2)n1)C(N)=O (configuration not stated)', 'MIC', 'mg/L', 0.03);

* * *

Recorded MIC values (Enterococcus faecalis) are given below.
RECORDED ENDPOINT: MIC (µg/mL)

INSERT INTO measurements (compound, recorded_endpoint, test_value) VALUES
  ('C=C(NC(=O)c1csc(-c2nc3c(cc2O)-c2nc(cs2)C(=O)N[C@@H]([C@@H](C)O)C(=O)N/C(=C(\C)OC)c2nc(cs2)C(=O)N[C@@H]2c4nc(cs4)C(=O)N[C@@H](COC(=O)c4c5c6c(cccc6n4O)COC(=O)[C@@H](O[C@H]4C[C@](C)(O)[C@H](N(C)C)[C@H](C)O4)[C@H]2OC5)c2nc-3cs2)n1)C(N)=O', 'MIC', 0.03),
  ('C=C(NC(=O)c1csc(-c2nc3c(cc2OP([O-])OC)-c2nc(cs2)C(=O)NC(C(C)O)C(=O)N/C(=C(\C)OC)c2nc(cs2)C(=O)NC2c4nc(cs4)C(=O)NC(COC(=O)c4c5c6c(cccc6n4O)COC(=O)C(OC4CC(C)(O)C(N(C)C)C(C)O4)C2OC5)c2nc-3cs2)n1)C(N)=O.[Na+] (stereo not drawn)', 'MIC', 0.25),
  ('C=C(NC(=O)c1csc(-c2nc3c(cc2O)-c2nc(cs2)C(=O)NC(C(C)O)C(=O)N/C(=C(\C)OC)c2nc(cs2)C(=O)NC2c4nc(cs4)C(=O)NC(COC(=O)c4c5c6c(cccc6n4OC(=O)NC)COC(=O)C(OC4CC(C)(O)C(N(C)C)C(C)O4)C2OC5)c2nc-3cs2)n1)C(N)=O (stereo not drawn)', 'MIC', 0.06);

* * *

test system: Enterococcus faecalis
RECORDED ENDPOINT: MIC (µg/mL)

INSERT INTO assay_data (compound, measured_on, test_value) VALUES
  ('C=C(NC(=O)c1csc(-c2nc3c(cc2O)-c2nc(cs2)C(=O)NC(C(C)O)C(=O)N/C(=C(\C)OC)c2nc(cs2)C(=O)NC2c4nc(cs4)C(=O)NC(COC(=O)c4c5c6c(cccc6n4OC(=O)NCCCN4CCN(C)CC4)COC(=O)C(OC4CC(C)(O)C(N(C)C)C(C)O4)C2OC5)c2nc-3cs2)n1)C(N)=O (centres undefined)', 'Enterococcus faecalis', 0.003),
  ('C=C(NC(=O)c1csc(-c2nc3c(cc2OP(=O)(O)OCCCl)-c2nc(cs2)C(=O)NC(C(C)O)C(=O)N/C(=C(\C)OC)c2nc(cs2)C(=O)NC2c4nc(cs4)C(=O)NC(COC(=O)c4c5c6c(cccc6n4OP(=O)(O)OCCCl)COC(=O)C(OC4CC(C)(O)C(N(C)C)C(C)O4)C2OC5)c2nc-3cs2)n1)C(N)=O (centres undefined)', 'Enterococcus faecalis', 4),
  ('C=C(NC(=O)c1csc(-c2nc3c(cc2O)-c2nc(cs2)C(=O)NC(C(C)O)C(=O)N/C(=C(\C)OC)c2nc(cs2)C(=O)NC2c4nc(cs4)C(=O)NC(COC(=O)c4c5c6c(cccc6n4OC(=O)N(C)CCO)COC(=O)C(OC4CC(C)(O)C(N(C)C)C(C)O4)C2OC5)c2nc-3cs2)n1)C(N)=O (centres undefined)', 'Enterococcus faecalis', 0.03),
  ('C=C(NC(=O)c1csc(-c2nc3c(cc2O)-c2nc(cs2)C(=O)NC(C(C)O)C(=O)N/C(=C(\C)OC)c2nc(cs2)C(=O)NC2c4nc(cs4)C(=O)NC(COC(=O)c4c5c6c(cccc6n4OC(=O)NCCCC)COC(=O)C(OC4CC(C)(O)C(N(C)C)C(C)O4)C2OC5)c2nc-3cs2)n1)C(N)=O (centres undefined)', 'Enterococcus faecalis', 0.03);

* * *

assay: Equilibrium water solubility was determined with amorphous powders at pH 8.2; assay type: ADME
RECORDED ENDPOINT: solubility thermodynamic (µg/mL)

INSERT INTO results (molecule, recorded_endpoint, value_unit, test_value) VALUES
  ('C=C(NC(=O)c1csc(-c2nc3c(cc2O)-c2nc(cs2)C(=O)NC(C(C)O)C(=O)N/C(=C(\C)OC)c2nc(cs2)C(=O)NC2c4nc(cs4)C(=O)NC(COC(=O)c4c5c6c(cccc6n4OP([O-])OC)COC(=O)C(OC4CC(C)(O)C(N(C)C)C(C)O4)C2OC5)c2nc-3cs2)n1)C(N)=O.[Na+] (stereo unspecified)', 'solubility thermodynamic', 'µg/mL', 5600);
